Tested on: Human immunodeficiency virus 1
protocol_notes: Antiviral activity against HIV1 in human C8166 cells assessed as prevention of virus-induced cytopathic effect
Format: functional, organism-based
assay_setup: Human immunodeficiency virus 1, C8166
Measured log10 EC50 of individual entries
Scale type: logarithmic (base 10). Underlying EC50 unit: µM.

Challenge: # input compound: COc1cc2c(c(O)c1OC)-c1c(cc3c(c1OC)OCO3)[C@@H](O)[C@H](C)[C@H](C)C2 ; wanted: its log10 EC50
Response given: 0.59

Challenge: Now consider COc1cc(C(O)C(C)C(C)Cc2cc(OC)c3c(c2)OCO3)cc(O)c1OC (stereo not given) .
Response given: 1.33

Challenge: Then what about the compound COc1c2c(cc3c1-c1c(cc4c(c1OC)OCO4)[C@@H](OC(C)=O)[C@H](C)[C@H](C)[C@@H]3O)OCO2 ?
Response given: 2.18

Challenge: Field entry: C=CCc1cc(OC)c2c(c1)[C@H](CO)[C@@H](c1ccc(O)c(OC)c1)O2
Response given: 1.12

Challenge: Then COc1cc2c(c(O)c1OC)-c1c(cc(OC)c(OC)c1OC)[C@@H](OC(C)=O)[C@H](C)[C@](C)(O)[C@@H]2OC(=O)/C=C/c1ccccc1 ?
Response given: 1.58

Challenge: Then this compound: C/C=C(/C)C(=O)O[C@@H]1c2cc(OC)c(OC)c(O)c2-c2c(cc(OC)c(OC)c2OC)[C@@H](OC(C)=O)[C@H](C)[C@@H]1C
Response given: 1.86

Challenge: Same question for COc1c2c(cc3c1-c1c(cc4c(c1OC)OCO4)[C@@H](O)[C@H](C)[C@H](C)C3=O)OCO2 please.
Response given: 1.66

Challenge: Now this one: C/C=C(/C)C(=O)O[C@@H]1c2cc3c(c(OC)c2-c2c(cc4c(c2OC)OCO4)[C@@H](O)[C@H](C)[C@@H]1C)OCO3
Response given: 2.14

Challenge: Same for COc1cc2c(c(OC)c1OC)-c1c(cc(OC)c(OC)c1OC)[C@@H]1O[C@H]2[C@H](C)[C@@H]1C
Response given: 1.64

Challenge: Same again, this time with COc1cc2c(c(OC)c1OC)-c1c(cc3c(c1OC)OCO3)[C@H]1O[C@@H]2[C@@H](C)[C@H]1C
Response given: 1.42

---

protocol_notes: Cytotoxicity against human C8166 cells by MTT assay
Assay type: cell-based
As shown below, each of these compounds has a reported CC50 value.
Respond numerically; units are µM and should not be typed.

// below: answered compounds
{"columns": ["compound", "CC50 / µM"],
 "data": [
  ["C/C=C(/C)C(=O)O[C@@H]1c2cc(OC)c(OC)c(O)c2-c2c(cc(OC)c(OC)c2OC)[C@@H](OC(C)=O)[C@H](C)[C@@H]1C", 160],
  ["COc1ccc([C@H]2Oc3c(OC)cc(C=O)cc3[C@@H]2C)cc1O", 270],
  ["COc1ccc(CC(C)C(C)C(O)c2cc(O)c(OC)c(OC)c2)cc1OC (centres undefined)", 30.7]
]}

Now for another entry.
Challenge: Find the recorded CC50 belonging to COc1cc2c(c(OC)c1OC)-c1c(cc(OC)c(OC)c1OC)[C@@H]1O[C@H]2[C@H](C)[C@@H]1C and report it.
Response given: 382
